// provenance: the supplement of paper PMC12855868

B1: library; numbered along this chain (parent)
chain: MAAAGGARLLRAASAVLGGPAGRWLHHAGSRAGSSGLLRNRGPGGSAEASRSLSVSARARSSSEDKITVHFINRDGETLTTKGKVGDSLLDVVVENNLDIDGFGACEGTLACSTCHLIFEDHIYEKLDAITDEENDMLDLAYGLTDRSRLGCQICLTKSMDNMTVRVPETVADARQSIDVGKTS

Variants of: B1
Test: scaled log2 fold change in cell abundance, elesclomol vs control (0 = silent mean, 1 = nonsense mean) (scaled log2 ratio); higher = higher viability under elesclomol (loss of FDX1 cuproptosis function);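 also: variant abundance is its share of total variant reads in each endpoint sample, from next-generation sequencing of the integrated ORF PCR-amplified out of genomic DNA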
Conditions: with HEK293T FDX1 KO; elesclomol 40 nM; glucose 10 mM; 11 days
Binary call on scaled log2 fold change: yes from 0.08 upward, no beneath that.

Take a look at these entries with their results.
A47C: yes
G86E: yes
G5I: no
T80L: no
I67Q: yes

Say whether `S30I` shows scaled log2 fold change of 0.08 or more.
no

How about this variant: `A4F`
no

How about this variant: `G18S`
yes

How about this variant: `H116T`
no

How about this variant: `E169A`
no

How about this variant: `S56C`
no

How about this variant: `C112V`
yes

How about this variant: `R149A`
yes

How about this variant: `H70E`
yes
